Give measured Flt3wt % INH (1 μM) for each item. Keep answers brief.
target: FLT3wt (Homo sapiens (Human), UniProt P36888); experiment: ADP-Glo Kinase Assay, Flt3 wt; format: biochemical; conditions: 1 μM compound
Sequence (P36888 27-993): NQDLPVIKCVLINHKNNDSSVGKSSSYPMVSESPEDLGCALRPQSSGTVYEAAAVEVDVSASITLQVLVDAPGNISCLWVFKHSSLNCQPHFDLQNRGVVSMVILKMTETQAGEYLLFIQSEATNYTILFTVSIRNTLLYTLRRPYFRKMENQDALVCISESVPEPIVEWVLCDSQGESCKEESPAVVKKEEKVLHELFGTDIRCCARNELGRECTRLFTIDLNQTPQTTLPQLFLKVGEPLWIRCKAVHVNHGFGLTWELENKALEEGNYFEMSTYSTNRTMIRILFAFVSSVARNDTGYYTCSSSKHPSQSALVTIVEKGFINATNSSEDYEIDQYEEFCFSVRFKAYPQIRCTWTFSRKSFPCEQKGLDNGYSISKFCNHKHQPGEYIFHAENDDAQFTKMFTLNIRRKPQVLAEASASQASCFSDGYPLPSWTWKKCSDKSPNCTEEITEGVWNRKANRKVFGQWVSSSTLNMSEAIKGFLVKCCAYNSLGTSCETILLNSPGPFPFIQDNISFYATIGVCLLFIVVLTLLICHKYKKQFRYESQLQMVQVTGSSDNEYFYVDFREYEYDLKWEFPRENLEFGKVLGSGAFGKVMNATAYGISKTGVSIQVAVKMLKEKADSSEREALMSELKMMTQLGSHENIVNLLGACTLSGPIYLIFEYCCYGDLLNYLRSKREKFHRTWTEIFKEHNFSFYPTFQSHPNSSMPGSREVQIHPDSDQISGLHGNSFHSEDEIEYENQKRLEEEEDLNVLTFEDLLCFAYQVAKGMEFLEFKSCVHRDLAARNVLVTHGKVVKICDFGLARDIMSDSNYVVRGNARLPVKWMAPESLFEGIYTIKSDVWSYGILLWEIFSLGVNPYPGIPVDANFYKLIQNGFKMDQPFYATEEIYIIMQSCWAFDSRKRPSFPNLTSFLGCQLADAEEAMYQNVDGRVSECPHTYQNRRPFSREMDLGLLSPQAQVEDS

Please review the following examples before continuing.
CC(C)n1c(N2CC[C@@H](N)C2)nc2c([N+](=O)[O-])c(Br)c(F)cc21    <5%
CCn1c(NCCN)nc2c([N+](=O)[O-])c(Br)c(Br)cc21    <5%

Each of the following entries comes with a recorded value; kindly state Flt3wt % INH (1 μM) for each.
1. CC(C)n1c(NC2CCNC2)nc2c(C#N)c(Br)c(Br)cc21 (stereo not shown) [Example 1BH]
2. CC(C)n1c(NC2CCC(N)CC2)nc2c([N+](=O)[O-])c(Br)c(Br)cc21 (stereo not shown) [Example 1BC]

Response:
["<5%", "<5%"]
